- PROTOCOL_NOTES: Cytotoxicity, resazurin-based reductase assay
- Type: cell-based, human
- CONDITIONS_USED: human, HepG2 cells; HepG2, 48 h exposure, resazurin; mean ± SD, 3–6 independent experiments
MEASURED_PROPERTY: IC50 at 48 h (µM)
Give just the numeric value; µM need not be written.

• CN(C)c1ccc2nc3ccc(=[N+](C)C)cc-3sc2c1 [Methylene blue] = 6.52

Consider now this further compound.
Record COc1ccc2nc3cc(Cl)ccc3c(Nc3cc(CN4CCCC4)c(O)c(CN4CCCC4)c3)c2n1 [Pyronaridine] . Reported IC50 at 48 h: 5.95

----------
- PROTOCOL_NOTES: Cytotoxicity, resazurin-based reductase assay
- Format: cell-based, human
- CONDITIONS_USED: human, HepG2 cells; HepG2, 48 h exposure, resazurin; mean ± SD, 3–6 independent experiments
Listed next: entries and their corresponding IC50 at 48 h.

The following compounds have reported results that may help.
- CC[C@H]1OC(=O)[C@H](C)[C@@H](O[C@H]2C[C@@](C)(OC)[C@@H](O)[C@H](C)O2)[C@H](C)[C@@H](O[C@@H]2O[C@H](C)C[C@H](N(C)C)[C@H]2O)[C@](C)(O)C[C@@H](C)CN(C)[C@H](C)[C@@H](O)[C@]1(C)O: > 50 µM
- CCCCN(CCCC)CC(O)c1cc(Cl)cc2c1-c1ccc(Cl)cc1/C2=C/c1ccc(Cl)cc1 (stereo not drawn): > 50 µM

In the following, a different compound is considered.
get_value(item= `C=C[C@H]1C[N@@]2CC[C@H]1C[C@H]2[C@H](O)c1ccnc2ccc(OC)cc12` , readout=IC50 at 48 h) returns > 50 µM
